- System: Fibroblast
- Experiment description: Incucyte cell viability with human fibroblast; also: filed as whole numbers so only -1 and 0 and 1 occur
- Format: toxicity, cell-based
- Condition: 12 h, 10 µM, compound concentration 10 uM, replicate number 1, timepoint 12 hours
Measurement kind: Growth Rate
Answer with a number only.

> print(dat)
                                   compound  observed
1  CCC(=O)N[C@H]1CC[C@@H](C(=O)N(C)c2ccc(-c3nc4ccccc4o3)cc2)C1         1
2  Nc1nc2c(c(N3CCNCC3)n1)CCC1=C2[C@@H]2CCCC[C@@H]2O1         0
3  CCCc1c(-c2ccc(O)cc2)nn(-c2ccc(O)cc2)c1-c1ccc(O)cc1         0
4  CCc1cc2c(cc1CC)CC(NC[C@H](O)c1ccc(O)c3[nH]c(=O)ccc13)C2         0
5  CC(=O)N1CCC(c2ccc(C(=O)NC3=NCCN3)cc2C(F)(F)F)CC1         1

Query block: Dear colleague, I am looking for the recorded Growth Rate of the following compound: COc1ccc(/C=C/CCCCOc2ccc(C(=O)c3cccc(C(=O)O)c3)cc2CCC(=O)O)cc1
Result block: 0

Query block: Query CCCOc1ccc([C@@H]2[C@@H](C(=O)O)[C@H](c3ccc4c(c3)OCO4)CN2CC(=O)Nc2c(CC)cccc2CC)cc1 next
Result block: 1

Query block: Query Cc1nc(Cc2cccc(C(F)(F)F)c2)sc1-c1ccc(C(N)=O)nc1 [TP-024n] next
Result block: 0

Query block: Query CNC(=O)c1cc(Oc2ccc(NC(=O)Nc3cc(C(C)(C)C)nn3-c3ccc4ncccc4c3)c(F)c2)ccn1 next
Result block: 0

Reference source for all entries: ChEMBL document CHEMBL4689842
